Attribution: patent US20210228562A1

target: Ikaros (protein product of gene IKZF1) (Homo sapiens, UniProt Q13422+Q96SW2); construct: endogenous in cells; host or cells: OCI-LY10; assay: Quantification of Ikaros degradation in OCI-LY10 cells (quantitative immunoblotting); type: cell-based; details: 6 h treatment
Sequence (Q13422 whole entry): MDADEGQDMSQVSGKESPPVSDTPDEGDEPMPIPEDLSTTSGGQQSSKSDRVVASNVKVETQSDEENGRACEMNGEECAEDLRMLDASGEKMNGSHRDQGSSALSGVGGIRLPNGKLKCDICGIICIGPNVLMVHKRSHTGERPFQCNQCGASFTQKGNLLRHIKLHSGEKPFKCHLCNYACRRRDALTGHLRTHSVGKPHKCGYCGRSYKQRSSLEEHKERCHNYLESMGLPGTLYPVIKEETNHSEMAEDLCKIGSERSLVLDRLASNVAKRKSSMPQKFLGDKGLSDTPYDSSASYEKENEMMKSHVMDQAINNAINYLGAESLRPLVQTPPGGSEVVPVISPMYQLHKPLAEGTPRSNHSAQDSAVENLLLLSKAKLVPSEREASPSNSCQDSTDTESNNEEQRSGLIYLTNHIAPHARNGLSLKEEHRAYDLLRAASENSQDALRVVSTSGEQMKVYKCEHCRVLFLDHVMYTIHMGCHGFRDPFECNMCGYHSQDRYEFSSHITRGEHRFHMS
Sequence (Q96SW2 whole entry): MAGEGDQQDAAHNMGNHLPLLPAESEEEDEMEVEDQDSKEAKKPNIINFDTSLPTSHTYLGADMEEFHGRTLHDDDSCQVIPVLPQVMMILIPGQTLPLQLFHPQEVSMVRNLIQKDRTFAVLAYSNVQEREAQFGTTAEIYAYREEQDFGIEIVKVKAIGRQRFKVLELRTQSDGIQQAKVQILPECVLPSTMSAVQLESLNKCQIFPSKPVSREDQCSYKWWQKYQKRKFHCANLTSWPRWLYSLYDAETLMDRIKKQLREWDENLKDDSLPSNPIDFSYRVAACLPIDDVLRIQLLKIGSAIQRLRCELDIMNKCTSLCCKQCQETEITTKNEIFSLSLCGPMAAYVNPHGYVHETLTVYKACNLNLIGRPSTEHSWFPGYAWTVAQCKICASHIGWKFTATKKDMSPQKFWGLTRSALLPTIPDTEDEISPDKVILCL
Sequence (Q16531 whole entry partner): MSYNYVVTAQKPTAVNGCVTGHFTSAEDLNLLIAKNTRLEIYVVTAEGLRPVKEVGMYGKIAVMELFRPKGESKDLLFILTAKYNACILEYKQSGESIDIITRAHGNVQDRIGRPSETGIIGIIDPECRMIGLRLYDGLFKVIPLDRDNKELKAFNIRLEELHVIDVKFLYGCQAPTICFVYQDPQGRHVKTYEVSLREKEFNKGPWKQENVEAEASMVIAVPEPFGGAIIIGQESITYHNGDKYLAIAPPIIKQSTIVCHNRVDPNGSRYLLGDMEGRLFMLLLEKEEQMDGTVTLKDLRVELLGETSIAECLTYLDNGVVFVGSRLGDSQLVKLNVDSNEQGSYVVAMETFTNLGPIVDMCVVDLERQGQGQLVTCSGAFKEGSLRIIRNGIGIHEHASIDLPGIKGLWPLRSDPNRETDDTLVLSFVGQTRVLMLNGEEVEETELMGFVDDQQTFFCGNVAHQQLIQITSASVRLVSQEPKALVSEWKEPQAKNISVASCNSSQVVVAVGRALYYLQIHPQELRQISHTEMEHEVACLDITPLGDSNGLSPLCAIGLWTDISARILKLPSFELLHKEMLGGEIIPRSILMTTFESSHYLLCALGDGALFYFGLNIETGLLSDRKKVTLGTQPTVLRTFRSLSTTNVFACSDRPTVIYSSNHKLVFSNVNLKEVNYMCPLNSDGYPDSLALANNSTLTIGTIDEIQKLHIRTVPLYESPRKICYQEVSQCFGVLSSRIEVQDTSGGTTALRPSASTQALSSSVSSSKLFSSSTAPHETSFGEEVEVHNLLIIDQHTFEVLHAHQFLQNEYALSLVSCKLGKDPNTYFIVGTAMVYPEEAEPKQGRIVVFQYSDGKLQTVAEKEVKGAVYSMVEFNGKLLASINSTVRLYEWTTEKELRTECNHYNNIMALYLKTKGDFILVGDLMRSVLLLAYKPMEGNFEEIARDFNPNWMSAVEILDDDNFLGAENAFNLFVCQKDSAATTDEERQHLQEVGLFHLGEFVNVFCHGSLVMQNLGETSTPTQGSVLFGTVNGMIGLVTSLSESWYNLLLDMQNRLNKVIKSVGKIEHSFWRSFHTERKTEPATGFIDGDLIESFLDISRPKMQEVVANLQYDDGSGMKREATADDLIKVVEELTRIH
Reported DC50 values for a set of compounds

Worked cases, answers included:
Compound	Recorded Endpoint	Assay Result
COc1cc2nc([C@H]3CC[C@H](CN4CCC5(CC4)CC(CCNc4cccc6c4C(=O)N(C4CCC(=O)NC4=O)C6=O)C5)CC3)sc2cc1NC(=O)c1cccc(C)n1 (some centres unmarked)	DC50	< 50 nM
CC(C)(O)c1cc2nc([C@H]3CC[C@H](CN4CC5(CC(CNc6cccc7c6C(=O)N(C6CCC(=O)NC6=O)C7=O)C5)C4)CC3)sc2cc1NC(=O)c1cccc(C(F)(F)F)n1 (some centres unmarked)	DC50	< 50 nM
COc1cc2nc([C@H]3CC[C@H](CN(C)[C@H]4CC[C@]5(CC4)C[C@@H](CNc4cccc6c4C(=O)N(C4CCC(=O)NC4=O)C6=O)C5)CC3)sc2cc1NC(=O)c1cccc(C(F)(F)F)n1 (some centres unmarked)	DC50	50 to 100 nM
CC(C)(O)c1cc2nc([C@H]3CC[C@H](CN4CC5(CC(CCNc6cccc7c6C(=O)N([C@H]6CCC(=O)NC6=O)C7=O)C5)C4)CC3)sc2cc1NC(=O)c1cccc(C(F)(F)F)n1 (single isomer, unassigned)	DC50	< 50 nM
CC(C)(O)c1cc2nc(N3CC(CN4CCC5(CC4)CC(CNc4cccc6c4C(=O)N(C4CCC(=O)NC4=O)C6=O)C5)C3)sc2cc1NC(=O)c1cccc(C(F)(F)F)n1 (centres unmarked)	DC50	< 50 nM
COc1cc2nc([C@H]3CC[C@H](CN4CC5(CC(CCNc6cccc7c6C(=O)N(C6CCC(=O)NC6=O)C7=O)C5)C4)CC3)sc2cc1NC(=O)c1cccc(C(C)(F)F)n1 (some centres unmarked)	DC50	< 50 nM

For Ikaros (protein product of gene IKZF1) (Homo sapiens, UniProt Q13422+Q96SW2), give DC50 of the listed compound: CC(C)(O)c1cc2nc([C@H]3CC[C@H](CN4CC5(CC(CCNc6cccc7c6C(=O)N(C6CCC(=O)NC6=O)C7=O)C5)C4)CC3)sc2cc1NC(=O)c1cccc(C(C)(F)F)c1 (some centres unmarked)
< 50 nM

For Ikaros (protein product of gene IKZF1) (Homo sapiens, UniProt Q13422+Q96SW2), give DC50 of the listed compound: C[C@@H](CNc1cccc2c1C(=O)N(C1CCC(=O)NC1=O)C2=O)C1CC2(C1)CN(C[C@H]1CC[C@H](c3nc4cc(C(C)(C)O)c(NC(=O)c5cccc(C(F)(F)F)n5)cc4s3)CC1)C2 (some centres unmarked)
< 50 nM

For Ikaros (protein product of gene IKZF1) (Homo sapiens, UniProt Q13422+Q96SW2), give DC50 of the listed compound: COc1cc2nc([C@H]3CC[C@H](CN4CC5(CC(CCNc6cccc7c6C(=O)N(C6CCC(=O)NC6=O)C7=O)C5)C4)CC3)sc2cc1NC(=O)c1ccnc(C)n1 (some centres unmarked)
< 50 nM

For Ikaros (protein product of gene IKZF1) (Homo sapiens, UniProt Q13422+Q96SW2), give DC50 of the listed compound: CN(C[C@H]1CC[C@H](c2nc3cc(C(C)(C)O)c(NC(=O)c4cccc(C(F)(F)F)n4)cc3s2)CC1)[C@H]1CC[C@H](CCNc2cccc3c2C(=O)N(C2CCC(=O)NC2=O)C3=O)CC1 (some centres unmarked)
< 50 nM
